In this section, each of the compounds is paired with its reported relative viability.
- System: SW 1573
- ASSAY OVERVIEW: relative viability (nuclei count vs DMSO), 5 days (fraction); higher = more cells survive
- DETAILS: first compound 0.8 µM
OBSERVED PROPERTY: relative viability

COMPOUND: C=C1C(=O)O[C@@H](CCCCCCCC)[C@@H]1C(=O)O [C-75] + CC(=O)Nc1cccc(-n2c(=O)n(C3CC3)c(=O)c3c(Nc4ccc(I)cc4F)n(C)c(=O)c(C)c32)c1 [Trametinib] (partner 0.02 µM)
OBSERVED PROPERTY: relative viability
NUMBER: 0.547
--
COMPOUND: C=C1C(=O)O[C@@H](CCCCCCCC)[C@@H]1C(=O)O [C-75] + Cc1nc(NC(=O)N2CCC[C@H]2C(N)=O)sc1-c1ccnc(C(C)(C)C(F)(F)F)c1 [Alpelisib] (partner 2 µM)
OBSERVED PROPERTY: relative viability
NUMBER: 0.638
--
COMPOUND: C=C1C(=O)O[C@@H](CCCCCCCC)[C@@H]1C(=O)O [C-75] + N=C(N)NC(=N)NCCc1ccccc1 [Phenformin] (partner 250 µM)
OBSERVED PROPERTY: relative viability
NUMBER: 0.376
